# measured target: purified human IDO protein (Homo sapiens, UniProt P14902)
# Construct: 2 extra amino acids (linker from the BglII cloning site of pQE70); made in house; host or cells: E. coli M15(pREP4) with plasmid pQE70-hIDO
# Sequence (P14902 whole entry P110S/E119G): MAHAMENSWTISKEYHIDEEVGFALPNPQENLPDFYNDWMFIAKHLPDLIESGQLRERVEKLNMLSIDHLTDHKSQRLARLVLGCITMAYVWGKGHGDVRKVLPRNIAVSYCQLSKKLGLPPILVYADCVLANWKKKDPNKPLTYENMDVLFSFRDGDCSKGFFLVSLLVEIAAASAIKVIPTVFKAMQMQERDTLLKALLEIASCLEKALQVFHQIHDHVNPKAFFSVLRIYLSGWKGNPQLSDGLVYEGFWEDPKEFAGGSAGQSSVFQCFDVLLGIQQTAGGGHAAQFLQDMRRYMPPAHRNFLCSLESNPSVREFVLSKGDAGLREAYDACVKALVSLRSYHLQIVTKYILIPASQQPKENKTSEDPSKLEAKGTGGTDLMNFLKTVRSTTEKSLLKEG
# test name: Enzymatic IDO assay (kynurenine production, absorbance at 480 nm)
# Format: biochemical
# test settings: recombinant human IDO; values reported in ranges; read-out: hIDO IC50
Counter-ions that a name gives are not always drawn.
Please respond with reported IC50 for every item in the list.

Name the reported IC50 value associated with the compound C=C(COc1ccccc1-c1c[nH]cn1)c1coc2ccccc12 [compound 1030] 1 to 10 µM

Name the reported IC50 value associated with the compound O=C(Cc1cccs1)N1CCC(CCOc2ccccc2-c2c[nH]cn2)CC1 [compound 1176] 1 to 10 µM

Name the reported IC50 value associated with the compound N[C@@H]1CCCC[C@H]1NC(=O)Nc1ccc(CCOc2ccccc2-c2c[nH]cn2)c(Cl)c1 (racemic) [compound 1361] < 1 µM

Name the reported IC50 value associated with the compound CC(C)(C)CCOc1ccc(O)c(-c2cnc[nH]2)c1 [compound 1107] 10 to 100 µM

Name the reported IC50 value associated with the compound O=C(CC1CCOCC1)Nc1ccc(CCOc2ccccc2-c2c[nH]cn2)c(Cl)c1 [compound 1260] < 1 µM

Name the reported IC50 value associated with the compound Fc1ccc(COc2ccccc2-c2c[nH]cn2)cc1 [compound 1022] 10 to 100 µM

Name the reported IC50 value associated with the compound c1csc(CCOc2ccccc2-c2c[nH]cn2)c1 [compound 1198] 10 to 100 µM

Name the reported IC50 value associated with the compound O=C(Nc1ccc(CCOc2ccccc2-c2c[nH]cn2)cc1)OCc1ccccc1 [compound 1136] 1 to 10 µM

Name the reported IC50 value associated with the compound Oc1cc(F)c(Cl)cc1-c1cnc[nH]1 [compound 1130] 1 to 10 µM

Name the reported IC50 value associated with the compound Fc1cccc(-c2c[nH]cn2)c1OCCc1ccccc1Cl [compound 1296] 10 to 100 µM

Name the reported IC50 value associated with the compound O=C(Cc1ccccc1)N1CCC(CCOc2ccccc2-c2c[nH]cn2)CC1 [compound 1186] 1 to 10 µM

Name the reported IC50 value associated with the compound O=C(Nc1ccc(CCOc2ccccc2-c2c[nH]cn2)cc1)c1cccs1 [compound 1150] 1 to 10 µM

Name the reported IC50 value associated with the compound O=C(O)c1ccccc1C(=O)COc1ccccc1-c1c[nH]cn1 [compound 979] > 100 µM

Name the reported IC50 value associated with the compound Nc1ccc(CCOc2ccccc2-c2c[nH]cn2)cc1 [compound 1078] 1 to 10 µM

Name the reported IC50 value associated with the compound Oc1c(Cl)cc(Cl)c(OCCc2ccccc2Cl)c1-c1cnc[nH]1 [compound 1111] 10 to 100 µM

Name the reported IC50 value associated with the compound CC(C)(C)COC(=O)N1CCC(CCOc2ccccc2-c2c[nH]cn2)CC1 [compound 1149] 10 to 100 µM

Name the reported IC50 value associated with the compound COc1cccc(-c2c[nH]cn2)n1 [compound 1009, 2-(1H-imidazol-4-yl)-6-methoxypyridine] > 100 µM

Name the reported IC50 value associated with the compound O=C(COc1ccccc1-c1c[nH]cn1)c1cccc(Br)c1 [compound 953] 10 to 100 µM

Name the reported IC50 value associated with the compound OC(c1ccccc1)c1c[nH]cn1 (stereo not drawn) [compound 1006, (1H-imidazol-4-yl)(phenyl)methanol] > 100 µM

Name the reported IC50 value associated with the compound O=C(CC1CCOCC1)Nc1ccc(CCOc2ccccc2-c2c[nH]cn2)c(C(F)(F)F)c1 [compound 1305] < 1 µM

Name the reported IC50 value associated with the compound Oc1cccc(OCCC2CCCO2)c1-c1cnc[nH]1 (stereo not drawn) [compound 1235] 10 to 100 µM

Name the reported IC50 value associated with the compound O=C(Cc1ccccc1[N+](=O)[O-])Nc1ccc(CCOc2ccccc2-c2c[nH]cn2)cc1 [compound 1242] < 1 µM

Name the reported IC50 value associated with the compound CC(Cc1ccccc1Cl)Oc1ccccc1-c1c[nH]cn1 (stereo not drawn) [compound 1043] 1 to 10 µM

Name the reported IC50 value associated with the compound CC(=O)Nc1ccc(CCOc2ccccc2-c2c[nH]cn2)c(Cl)c1 [compound 1159] 1 to 10 µM

Name the reported IC50 value associated with the compound NC1CCCCC1NC(=O)Nc1ccc(CCOc2ccccc2-c2c[nH]cn2)cc1 (stereo not drawn) [compound 1216] 1 to 10 µM

Name the reported IC50 value associated with the compound c1cnc2[nH]cc(-c3c[nH]cn3)c2c1 [compound 964] > 100 µM

Name the reported IC50 value associated with the compound c1ccc(-c2c[nH]cn2)c(OCCc2ccc(N3CCCC3)cc2)c1 [compound 1225] 10 to 100 µM

Name the reported IC50 value associated with the compound Oc1cccc(OCCc2ccc(Cl)cc2)c1-c1cnc[nH]1 [compound 1148] 1 to 10 µM

Name the reported IC50 value associated with the compound FC(F)(F)c1ccccc1CCOc1ccccc1-c1c[nH]cn1 [compound 1040] 1 to 10 µM

Name the reported IC50 value associated with the compound BrCCOc1ccccc1-c1c[nH]cn1 [compound 1243, 4-(2-(2-bromoethoxy)phenyl)-1H-imidazole] 10 to 100 µM

Name the reported IC50 value associated with the compound CC(COc1ccccc1-c1c[nH]cn1)C1CCCCC1 (stereo not drawn) [compound 1052, hydrochloride] 1 to 10 µM

Name the reported IC50 value associated with the compound Nc1cccc(CC(=O)Nc2ccc(CCOc3ccccc3-c3c[nH]cn3)cc2)c1 [compound 1244] 1 to 10 µM

Name the reported IC50 value associated with the compound O=C(COc1ccccc1-c1c[nH]cn1)C1CCCCC1 [compound 1354] 1 to 10 µM

Name the reported IC50 value associated with the compound COc1cc(F)c(Cl)cc1-c1cnc[nH]1 [compound 1051] > 100 µM

Name the reported IC50 value associated with the compound O=C(O)CCSc1nc(-c2ccccc2)c(-c2ccccc2)[nH]1 [compound 1079] > 100 µM

Name the reported IC50 value associated with the compound O=C(Nc1cccc(OC2CCOC2)c1)Nc1ccc(CCOc2ccccc2-c2c[nH]cn2)c(Cl)c1 (stereo not drawn) [compound 1346] 1 to 10 µM
